target: UniProt P08684; test: Determination of IC50 against CYP3A4 by measurement of inhibition of midazolam metabolism (human liver microsomes, 1-hydroxymidazolam by LC-MS/MS); assay type: biochemical; parameters: 0.1 mg/mL human liver microsomes; conditions: 2 μM midazolam, 0.1 mg/mL human liver microsomes
Sequence (P08684 whole entry): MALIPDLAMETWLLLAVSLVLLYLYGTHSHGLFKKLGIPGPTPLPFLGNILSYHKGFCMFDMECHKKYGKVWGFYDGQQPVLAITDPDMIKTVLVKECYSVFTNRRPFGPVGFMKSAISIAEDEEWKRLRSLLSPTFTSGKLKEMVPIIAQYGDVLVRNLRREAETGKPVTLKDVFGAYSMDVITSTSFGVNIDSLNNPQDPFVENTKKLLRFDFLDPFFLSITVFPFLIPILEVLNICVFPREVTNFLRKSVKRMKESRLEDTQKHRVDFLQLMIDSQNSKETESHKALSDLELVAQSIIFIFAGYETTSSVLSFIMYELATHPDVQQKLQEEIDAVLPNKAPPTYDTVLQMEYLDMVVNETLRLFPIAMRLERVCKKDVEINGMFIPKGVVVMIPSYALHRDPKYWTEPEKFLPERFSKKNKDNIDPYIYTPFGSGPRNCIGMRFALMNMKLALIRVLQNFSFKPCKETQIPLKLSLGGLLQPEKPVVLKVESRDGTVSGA
Measured pIC50 accompanies every entry in the list below.
# pIC50 is unitless: minus log10 of the molar concentration; print number only

COCCNC(=O)c1ccccc1S(=O)(=O)Nc1cncc(OC)c1	6.79
CCCCNC(=O)c1ccccc1S(=O)(=O)Nc1cnccc1OC	7.16
COc1cncc(NS(=O)(=O)c2ccc(Cl)cc2C(=O)N(C)C(C)C)c1	6.83
CN(c1cccnc1)S(=O)(=O)c1ccccc1C(=O)NCc1cccc(F)c1	7.49
O=C(NCc1ccc(F)cc1)c1ccccc1S(=O)(=O)Nc1cccnc1	7.96

Qu. Let me know recorded pIC50 for `COc1cncc(NS(=O)(=O)c2ccc(Cl)cc2C(=O)NCc2ccc(F)cc2)c1` , thanks.
Ans. 7.28

Qu. Name the recorded pIC50 of the compound listed here: COc1cncc(NS(=O)(=O)c2ccc(Cl)cc2C(=O)N2CCCC(C)C2)c1 (stereo not drawn)
Ans. 7.21

Qu. Hello, please tell me recorded pIC50 for this one: `CC(C)(O)c1ccc(CNC(=O)c2ccccc2S(=O)(=O)Nc2cccnc2)cc1`
Ans. 6.93
